Readings of pIC50 for the listed compounds
target: GR (Homo sapiens); assay: In vitro GR luciferase reporter assay (antagonist mode); conditions: CHO-K1-GR-MMTV-Luc reporter cells, 10 nM dexamethasone, 18-24 hours
Sequence (P04150 whole entry): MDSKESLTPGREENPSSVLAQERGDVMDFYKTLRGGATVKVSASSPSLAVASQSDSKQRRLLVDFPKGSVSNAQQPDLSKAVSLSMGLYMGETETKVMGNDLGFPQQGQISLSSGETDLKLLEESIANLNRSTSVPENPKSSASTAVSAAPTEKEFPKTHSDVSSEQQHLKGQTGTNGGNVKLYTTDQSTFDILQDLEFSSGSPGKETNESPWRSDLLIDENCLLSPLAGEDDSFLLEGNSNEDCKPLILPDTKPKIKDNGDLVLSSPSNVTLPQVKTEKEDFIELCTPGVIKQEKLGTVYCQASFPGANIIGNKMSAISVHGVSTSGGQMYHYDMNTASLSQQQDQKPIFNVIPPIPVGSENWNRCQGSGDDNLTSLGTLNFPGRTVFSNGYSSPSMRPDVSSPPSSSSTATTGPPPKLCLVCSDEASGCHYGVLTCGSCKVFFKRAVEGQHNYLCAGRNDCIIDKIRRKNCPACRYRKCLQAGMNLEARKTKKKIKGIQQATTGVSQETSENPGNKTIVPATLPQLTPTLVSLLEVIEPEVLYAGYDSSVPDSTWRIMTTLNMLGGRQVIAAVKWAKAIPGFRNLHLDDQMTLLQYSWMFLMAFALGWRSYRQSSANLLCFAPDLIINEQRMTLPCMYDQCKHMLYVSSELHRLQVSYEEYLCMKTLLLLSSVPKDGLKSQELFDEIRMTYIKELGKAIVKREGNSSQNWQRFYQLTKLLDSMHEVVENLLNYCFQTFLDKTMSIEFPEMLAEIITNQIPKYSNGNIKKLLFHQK
pIC50: −log10 of the molar value.

Compound structure: [2H]C([2H])([2H])C#C[C@]1(O)[C@H](C)C[C@H]2[C@@H]3CCC4=CC(=O)CCC4=C3[C@@H](c3cc(F)c(C)c(F)c3)C[C@@]21C
System under test: GR (Homo sapiens)
Reported property: pIC50
Recorded value: ≥ 7.00

# next compound below
Entry Cc1ccc([C@H]2C[C@@]3(C)[C@@H](CC[C@@]3(O)C#CC(C)(F)F)[C@@H]3CCC4=CC(=O)CCC4=C32)cc1F , pIC50 reported as < 7.00
